- Test system: UO-31 renal
- experimentalDetails: NCI tumour cell line growth inhibition, 48 h
The threshold is inclusive: TGI of exactly 8 µM counts as Met; values below receive Not met.

Problem: Is TGI for COC[C@@H](N=Cc1ccc(OC)cc1)C(C)C at or above 8 µM?
Solution: Met

Problem: Has CCOC(=O)C1C(=O)C=C(c2cc(C)ccc2O)CC1c1cccc(Br)c1 (stereo not given) a recorded TGI greater than or equal to 8 µM?
Solution: Met

Problem: Is it the case that Cc1ccc(CCNC(=S)SCC(NC(=O)CCC(N)C(=O)O)C(=O)NCC(=O)O)cc1 (stereo not given) has TGI reaching or exceeding 8 µM?
Solution: Not met

Problem: Check the entry Cc1ccc(-c2cn3c(nc4ccccc43)c(C)n2)cc1 : does TGI equal or exceed 8 µM?
Solution: Met

Problem: Quick check, TGI >= 8 µM? COc1ccc(-c2nccn2-c2cc(OC)c(OC)c(OC)c2)cc1
Solution: Met
